# system: Rhesus PDE2A3 (Macaca mulatta, UniProt B3VTJ2)
# Construct: made in house; host or cells: AD293 cells, transient transfection; supernatant of sonicated lysate
# Sequence (B3VTJ2 1-941): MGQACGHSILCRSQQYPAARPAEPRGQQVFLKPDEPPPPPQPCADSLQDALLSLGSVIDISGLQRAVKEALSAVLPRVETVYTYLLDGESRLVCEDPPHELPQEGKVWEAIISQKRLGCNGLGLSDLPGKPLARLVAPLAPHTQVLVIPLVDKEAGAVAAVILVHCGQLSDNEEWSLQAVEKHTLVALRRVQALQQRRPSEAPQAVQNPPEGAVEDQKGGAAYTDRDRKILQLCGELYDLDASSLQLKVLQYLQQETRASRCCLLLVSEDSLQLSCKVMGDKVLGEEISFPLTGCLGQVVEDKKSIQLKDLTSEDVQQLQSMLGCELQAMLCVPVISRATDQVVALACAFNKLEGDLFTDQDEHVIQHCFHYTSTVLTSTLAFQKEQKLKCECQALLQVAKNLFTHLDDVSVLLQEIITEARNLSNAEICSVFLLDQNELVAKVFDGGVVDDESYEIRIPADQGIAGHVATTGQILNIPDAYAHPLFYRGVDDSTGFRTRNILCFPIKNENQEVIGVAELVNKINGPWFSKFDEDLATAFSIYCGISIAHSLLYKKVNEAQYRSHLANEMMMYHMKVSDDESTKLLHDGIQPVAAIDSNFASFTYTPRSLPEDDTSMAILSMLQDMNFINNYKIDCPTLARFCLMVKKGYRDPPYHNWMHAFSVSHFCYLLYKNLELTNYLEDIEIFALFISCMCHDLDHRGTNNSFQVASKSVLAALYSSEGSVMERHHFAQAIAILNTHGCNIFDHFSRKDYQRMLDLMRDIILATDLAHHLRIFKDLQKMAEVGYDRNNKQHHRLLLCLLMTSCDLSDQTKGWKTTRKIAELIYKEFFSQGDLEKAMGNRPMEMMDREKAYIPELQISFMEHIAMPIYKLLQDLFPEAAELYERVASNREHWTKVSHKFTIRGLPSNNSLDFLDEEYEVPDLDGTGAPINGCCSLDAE
# assay_info: PDE2 fluorescence polarization (IMAP FP) inhibition assay, rhesus PDE2A3
# Type: biochemical, rhesus macaque
# setup_conditions: Lab B; read-out: Rhesus PDE2 Ki (nM) Lab B
log10 of Ki values by entry
Lab note - Ki converted to log10 from values in nM.

Use these answered entries as a reference point.
molecule | log10 of Ki
Cc1nc2c(c(C#N)nn2C(C)c2ccc(C(F)(F)F)cc2)c(=O)[nH]1 (single isomer, unassigned) [Example 253] | 2.85
Cc1nc2c(c(CF)nn2C(C)c2ccc(C(C)(C)C)cc2)c(=O)[nH]1 (single isomer, unassigned) [Example 215] | -0.20
COc1ccc(C(=O)c2nc3c(c(C(F)F)nn3C(C)c3ccc(C(F)(F)F)cc3)c(=O)[nH]2)cc1OC (stereo not drawn) [Example 198] | 1.23

Q: Please give the documented log10 of Ki of Cc1ccc(C(C)n2nc(CF)c3c(=O)[nH]c(C)nc32)cc1 (stereo not drawn) [Example 203]
Ans: 1.08

----------
# system: human PDE2A1 (Homo sapiens, UniProt O00408)
# Construct: GST; purchased BPS Bioscience (San Diego, Calif.) 60020; host or cells: insect cells
# Sequence (O00408 1-920 isoform O00408-2): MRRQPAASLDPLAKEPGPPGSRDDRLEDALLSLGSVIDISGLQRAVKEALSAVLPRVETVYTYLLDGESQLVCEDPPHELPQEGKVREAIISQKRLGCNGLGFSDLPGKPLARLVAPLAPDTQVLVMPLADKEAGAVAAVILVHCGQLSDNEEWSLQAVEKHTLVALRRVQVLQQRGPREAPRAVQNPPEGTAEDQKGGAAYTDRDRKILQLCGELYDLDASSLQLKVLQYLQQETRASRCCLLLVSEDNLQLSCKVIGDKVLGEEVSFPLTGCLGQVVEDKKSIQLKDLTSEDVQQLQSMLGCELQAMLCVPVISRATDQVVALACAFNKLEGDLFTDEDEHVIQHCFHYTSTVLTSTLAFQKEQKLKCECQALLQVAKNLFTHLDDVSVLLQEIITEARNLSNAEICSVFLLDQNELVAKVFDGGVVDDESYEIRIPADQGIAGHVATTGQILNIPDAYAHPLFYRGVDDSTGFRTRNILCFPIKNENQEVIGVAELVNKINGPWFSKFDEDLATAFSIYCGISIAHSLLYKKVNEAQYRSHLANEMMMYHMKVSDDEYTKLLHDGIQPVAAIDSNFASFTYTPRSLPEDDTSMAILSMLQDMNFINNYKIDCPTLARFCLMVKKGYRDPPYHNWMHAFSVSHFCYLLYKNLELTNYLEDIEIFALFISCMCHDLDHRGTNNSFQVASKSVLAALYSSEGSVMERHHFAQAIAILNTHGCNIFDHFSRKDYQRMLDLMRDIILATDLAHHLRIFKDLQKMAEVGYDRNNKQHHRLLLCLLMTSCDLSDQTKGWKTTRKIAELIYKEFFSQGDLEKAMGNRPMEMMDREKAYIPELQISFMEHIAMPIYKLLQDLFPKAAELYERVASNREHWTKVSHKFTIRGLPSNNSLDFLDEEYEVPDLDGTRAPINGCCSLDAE
# assay_info: IMAP FP PDE assay, human PDE2A1
# Assay type: biochemical
# setup_conditions: Lab B; read-out: Human PDE2 Ki (nM) Lab B
Okay, here is how we bin by Ki: low-valued = under 3 nM, mid-valued = from 3 nM up to 30 nM, high-valued = 30 nM and over

Worked examples, 5 molecules total:
molecule | assigned_category
Cc1nc2c(c(CC(F)(F)F)nn2C(c2ccc(C(F)(F)F)c(F)c2)C(C)(C)C)c(=O)[nH]1 (single isomer, unassigned) [Example 60] | high-valued
Cc1nc2c(c(OCC(F)(F)F)nn2C(C)c2ccc(C(F)(F)F)cc2)c(=O)[nH]1 (single isomer, unassigned) [Example 288] | high-valued
Cc1nc2c(c(CO)nn2C(C)c2ccc(C(F)(F)F)cn2)c(=O)[nH]1 (single isomer, unassigned) [Example 152] | high-valued
Cc1nc2c(c(CF)nn2C(C)c2ccc(CC(F)(F)F)cc2)c(=O)[nH]1 (single isomer, unassigned) [Example 211] | low-valued
Cc1nc2c(c(C(F)F)nn2C(c2ccc(C(F)(F)F)cc2)C(C)C)c(=O)[nH]1 (single isomer, unassigned) [Example 172] | low-valued

Q: Determine which band this molecule sits in: Cc1nc2c(c(C(F)F)nn2C(C)c2ccc(SC(F)(F)F)cc2)c(=O)[nH]1 (single isomer, unassigned) [Example 179]
Ans: mid-valued

Q: Sort CCC(c1ccc(OC(F)(F)F)cc1)n1nc(CO)c2c(=O)[nH]c(C)nc21 (single isomer, unassigned) [Example 134] into one of the categories.
Ans: high-valued

Q: Record CCc1nc2c(c(C(F)F)nn2C(C)c2ccc(C(F)(F)F)cc2)c(=O)[nH]1 (single isomer, unassigned) [Example 190] — which class?
Ans: low-valued

Q: Which category fits this record: COCc1nc2c(c(CO)nn2C(C)c2ccc(C(F)(F)F)cc2)c(=O)[nH]1 (single isomer, unassigned)
Ans: mid-valued

Q: Into which bin does this molecule go? CC(C)Cc1nc2c(c(CO)nn2C(C)c2ccc(C(F)(F)F)cc2)c(=O)[nH]1 (single isomer, unassigned) [Example 305]
Ans: mid-valued

Q: Hi there! Could you help me figure out the category for Cc1nc2c(c(CO)nn2C(C)c2ccc(C(F)(F)F)cc2)c(=O)[nH]1 (stereo not drawn) [Example 7] please?
Ans: mid-valued

Q: Band of Cc1nc2c(c(CO)nn2C(c2ccc(OC(F)(F)F)cc2)C2CC2)c(=O)[nH]1 (single isomer, unassigned) [Example 95] ?
Ans: low-valued

Q: For this molecule, which bin applies? Cc1nc2c(c(CO)nn2C(c2ccc(C(F)(F)F)c(F)c2)C2CC2)c(=O)[nH]1 (single isomer, unassigned) [Example 90]
Ans: high-valued

Q: Determine which band this molecule sits in: Cc1nc2c(c(C(F)F)nn2C(C)c2ccc(C(F)(F)F)c(F)c2)c(=O)[nH]1 (single isomer, unassigned) [Example 168]
Ans: low-valued

Q: For this molecule, which bin applies? Cc1nc2c(c(CO)nn2C(C)c2ccc(C(F)(F)F)cc2I)c(=O)[nH]1 (single isomer, unassigned) [Example 140]
Ans: high-valued

Q: Class for CC(c1ccc(S(F)(F)(F)(F)F)cc1)n1nc(CO)c2c(=O)[nH]c(C3CC3)nc21 (single isomer, unassigned) [Example 315] ?
Ans: mid-valued

Q: Category of Cc1nc2c(c(CO)nn2C(C)c2ccc(C(F)(F)F)cc2Cl)c(=O)[nH]1 (single isomer, unassigned) [Example 19] , please.
Ans: low-valued
